Test system: HuP-T3 (Pancreatic Carcinoma)
test.protocol: Bliss excess, mean over the matrix (fraction); higher = more synergy
reported.metric: Bliss excess
Respond using a number only.

CC1(C)CCC(CN2CCN(c3ccc(C(=O)NS(=O)(=O)c4ccc(NCC5CCOCC5)c([N+](=O)[O-])c4)c(Oc4cnc5[nH]ccc5c4)c3)CC2)=C(c2ccc(Cl)cc2)C1 [Venetoclax] + COc1cc(Nc2ncc3c(n2)-c2ccc(Cl)cc2C(c2c(F)cccc2OC)=NC3)ccc1C(=O)O [Alisertib] (first compound max 1 µM, 7x7, partner max 10 µM) :: -0.0527
CN(CCO)CC[C@H](CSc1ccccc1)Nc1ccc(S(=O)(=O)NC(=O)c2ccc(N3CCC([C@@H](O)c4ccccc4-c4ccc(Cl)cc4)CC3)cc2)cc1S(=O)(=O)C(F)(F)F [AZD4320] + C1CN(CCC1(C(=O)N[C@@H](CCO)C2=CC=C(C=C2)Cl)N)C3=NC=NC4=C3C=CN4 [Capivasertib] (first compound max 1 µM, 7x7, partner max 3 µM) :: -0.0678

// recorded Bliss excess for Cn1cnc2c(F)c(Nc3ccc(Br)cc3Cl)c(C(=O)NOCCO)cc21 [Selumetinib] + C[C@@H]1COCCN1C2=NC(=NC(=C2)C3(CC3)[S@](=N)(=O)C)C4=C5C=CNC5=NC=C4 [AZD6738] (first compound max 10 µM, 7x7, partner max 10 µM) : 0.048

// recorded Bliss excess for COc1cccc2c1C(=O)c1c(O)c3c(c(O)c1C2=O)C[C@@](O)(C(=O)CO)C[C@@H]3O[C@H]1C[C@H](N)[C@H](O)[C@H](C)O1 [Doxorubicin] + Cc1cc2ncnn2cc1Nc1ncc2c(n1)n(C1CCOCC1)c(=O)n2C [AZD7648] (first compound max 1 µM, 7x7, partner max 10 µM) : 0.0022

====

This listing pairs molecules with measured combination Emax.
Test system: NCI-H2347 (Lung Adenocarcinoma)
test.protocol: combination Emax (second highest fraction inhibited in the dose matrix, 72 h); higher = more inhibition; extreme values may be limits of the assay
Respond using a number only.

Examples with their reported combination Emax follow.
CC(=O)c1c(C)c2cnc(Nc3ccc(N4CCNCC4)cn3)nc2n(C2CCCC2)c1=O [Palbociclib] + CC1(C)CCC(CN2CCN(c3ccc(C(=O)NS(=O)(=O)c4ccc(NCC5CCOCC5)c([N+](=O)[O-])c4)c(Oc4cnc5[nH]ccc5c4)c3)CC2)=C(c2ccc(Cl)cc2)C1 [Venetoclax] (first compound max 10 µM, 7x7, partner max 1 µM) :: 0.14
Cc1cc2ncnn2cc1Nc1ncc2c(n1)n(C1CCOCC1)c(=O)n2C [AZD7648] + C[C@@H]1COCCN1C2=NC(=NC(=C2)C3(CC3)[S@](=N)(=O)C)C4=C5C=CNC5=NC=C4 [AZD6738] (first compound max 10 µM, 7x7, partner max 10 µM) :: 0.401

// recorded combination Emax for CCN(CCO)CCCOc1ccc2c(Nc3cc(CC(=O)Nc4cccc(F)c4)[nH]n3)ncnc2c1 [AZD2811] + O=C(c1cc(Cc2n[nH]c(=O)c3ccccc23)ccc1F)N1CCN(C(=O)C2CC2)CC1 [Olaparib] (first compound max 1 µM, 7x7, partner max 10 µM) : 0.186

====

System: EW-13 (Ewing's Sarcoma)
test.protocol: Bliss excess, mean over the matrix (fraction); higher = more synergy
This listing pairs compounds with measured Bliss excess.

CN(CCO)CC[C@H](CSc1ccccc1)Nc1ccc(S(=O)(=O)NC(=O)c2ccc(N3CCC([C@@H](O)c4ccccc4-c4ccc(Cl)cc4)CC3)cc2)cc1S(=O)(=O)C(F)(F)F [AZD4320] + C[C@@H]1COCCN1C2=NC(=NC(=C2)C3(CC3)[S@](=N)(=O)C)C4=C5C=CNC5=NC=C4 [AZD6738] (first compound max 1 µM, 7x7, partner max 10 µM) :: -0.0009

// recorded Bliss excess for NC1(C(=O)N[C@@H](CCO)c2ccc(Cl)cc2)CCN(c2ncnc3[nH]ccc23)CC1 [Capivasertib] + CCN(CCO)CCCOc1ccc2c(Nc3cc(CC(=O)Nc4cccc(F)c4)[nH]n3)ncnc2c1 [AZD2811] (first compound max 10 µM, 7x7, partner max 1 µM) : 0.007

// recorded Bliss excess for Cc1c2c(nn1C)CSCc1cc(n(C)n1)CSc1cc(c3ccccc3c1)OCCCc1c(C(=O)O)n(C)c3c-2c(Cl)ccc13 [AZD5991] + Cn1cnc2c(F)c(Nc3ccc(Br)cc3Cl)c(C(=O)NOCCO)cc21 [Selumetinib] (first compound max 1 µM, 7x7, partner max 3 µM) : 0.0215
